Where do the numbers come from? From patent US4965280A.

Test system: Cercosporidium personatum
Experiment notes: Example B Peanut Late Leafspot
Assay type: in vivo
Applied conditions: Nothopassalora personata; 20 PPM; read-out: disease control rating, Ex. B
Endpoint label: pest or weed control at 20 ppm (%)
Give just the number in %; leave the unit off.

# pest or weed control at 20 ppm of C=C(c1ccc(F)cc1)C(O)(CC)Cn1cncn1 (stereo not shown) = 17

# pest or weed control at 20 ppm of C=C(c1cccc(Cl)c1)C(O)(Cn1cncn1)c1ccc(Cl)c(Cl)c1 (stereo not shown) = 0

# pest or weed control at 20 ppm of C=C(c1cccc(Cl)c1)C(O)(Cn1cncn1)c1ccc(F)cc1F (stereo not shown) = 100

# pest or weed control at 20 ppm of C=C(c1cccc(F)c1)C(O)(Cn1cncn1)c1ccc(Cl)cc1Cl (stereo not shown) = 99

# pest or weed control at 20 ppm of "C=C(c1ccccc1)[C@](O)(Cn1cncn1)c1ccc(F)cc1" = 100

# pest or weed control at 20 ppm of C=C(c1ccccc1Cl)C(O)(Cn1cncn1)c1ccc(Cl)cc1Cl (stereo not shown) = 99

# pest or weed control at 20 ppm of C=C(c1ccc(SC)cc1)C(O)(Cn1cncn1)c1ccc(F)cc1F (stereo not shown) = 100

# pest or weed control at 20 ppm of C=C(c1ccc(OC)cc1)C(O)(Cn1cncn1)c1ccc(F)cc1 (stereo not shown) = 0

# pest or weed control at 20 ppm of C=C(c1ccc(F)cc1)C(O)(Cn1cncn1)C(C)C (stereo not shown) = 14

# pest or weed control at 20 ppm of C=C(c1ccc(Cl)cc1)C(O)(Cn1cncn1)c1ccc(Cl)c(Cl)c1 (stereo not shown) = 0

# pest or weed control at 20 ppm of C=C(c1cccc(Cl)c1)C(O)(Cn1cncn1)c1ccccc1F (stereo not shown) = 100

# pest or weed control at 20 ppm of C=C(c1ccccc1)C(O)(Cn1cncn1)c1ccccc1Cl (stereo not shown) = 95

# pest or weed control at 20 ppm of C=C(c1cccc(F)c1)C(O)(Cn1cncn1)c1ccc(Cl)cc1 (stereo not shown) = 100

# pest or weed control at 20 ppm of C=C(c1ccccc1Cl)C(O)(Cn1cncn1)c1ccc(Cl)c(Cl)c1 (stereo not shown) = 70

# pest or weed control at 20 ppm of C=C(c1ccc(C(F)(F)F)cc1)C(O)(Cn1cncn1)c1ccc(Cl)cc1 (stereo not shown) = 99

# pest or weed control at 20 ppm of C=C(c1ccc(SC)cc1)C(O)(Cn1cncn1)c1ccc(F)cc1 (stereo not shown) = 81

# pest or weed control at 20 ppm of C=C(c1ccc(F)cc1)C(O)(Cn1cncn1)c1ccc(Cl)c(Cl)c1 (stereo not shown) = 0

# pest or weed control at 20 ppm of C=C(c1ccc(F)cc1)C(O)(Cn1cncn1)c1ccc(F)cc1 (single isomer, unassigned) [Example 1277a] = 74

# pest or weed control at 20 ppm of C=C(c1ccc([S+](C)[O-])cc1)C(O)(Cn1cncn1)c1ccc(F)cc1 (stereo not shown) = 69
